protocol_text: Chromatographic hydrophobicity, logD of the compound at pH 7.4 by fast-gradient RP-HPLC method
Format: physicochemical
condition_set: buffer
quantity: chromatographic logD
Lab note: jot the number down without any unit.

Q: Item under review: CC[C@H]1OC(=O)[C@H](C)[C@@H](O[C@H]2C[C@@](C)(OC)[C@@H](O)[C@H](C)O2)[C@H](C)[C@@H](O[C@@H]2O[C@H](C)C[C@H](N(C)C)[C@H]2O)[C@](C)(OC)C[C@@H](C)/C(=N\O)[C@H](C)[C@@H](O)[C@]1(C)O . Reported chromatographic logD?
A: 3.61

Q: Let us now turn to CC[C@H]1OC(=O)[C@H](C)[C@@H](O[C@H]2C[C@@](C)(OC)[C@@H](OCCCNC(C)=O)[C@H](C)O2)[C@H](C)[C@@H](O[C@@H]2O[C@H](C)C[C@H](N(C)C)[C@H]2O)[C@](C)(O)C[C@@H](C)CN(C)[C@H](C)[C@@H](O)[C@]1(C)O
A: 2.06

Q: Now the molecule CCC(=O)NCCCO[C@H]1[C@H](O[C@@H]2[C@@H](C)[C@H](O[C@H]3C[C@@](C)(OC)[C@@H](O)[C@H](C)O3)[C@@H](C)C(=O)O[C@H](CC)[C@@](C)(O)[C@H](O)[C@@H](C)N(C)C[C@H](C)C[C@@]2(C)O)O[C@H](C)C[C@@H]1N(C)C
A: 2.7

Q: Moving on to CCCCCCCC(=O)NCCCN(C)[C@H]1C[C@@H](C)O[C@@H](O[C@@H]2[C@@H](C)[C@H](O[C@H]3C[C@@](C)(OC)[C@@H](O)[C@H](C)O3)[C@@H](C)C(=O)O[C@H](CC)[C@@](C)(O)[C@H](O)[C@@H](C)C(=O)[C@H](C)C[C@@]2(C)OC)[C@@H]1O
A: 6.44

Q: Param item: CCCCCCCC(=O)NCCCO[C@H]1[C@H](C)O[C@@H](O[C@H]2[C@H](C)[C@@H](O[C@@H]3O[C@H](C)C[C@H](N(C)C)[C@H]3O)[C@](C)(O)C[C@@H](C)CN(C)[C@H](C)[C@@H](O)[C@](C)(O)[C@@H](CC)OC(=O)[C@@H]2C)C[C@@]1(C)OC
A: 4.1

Q: Then this molecule: CC[C@H]1OC(=O)[C@H](C)[C@@H](O)[C@H](C)[C@@H](O)[C@](C)(O)C[C@@H](C)CN(C)[C@H](C)[C@@H](O)[C@]1(C)O [AZITHROMYCIN AGLYCONE]
A: 1.29

Q: Let us now turn to CCC(=O)NCCCO[C@H]1[C@H](C)O[C@@H](O[C@H]2[C@H](C)[C@@H](O[C@@H]3O[C@H](C)C[C@H](N(C)C)[C@H]3O)[C@](C)(O)C[C@@H](C)CN(C)[C@H](C)[C@@H](O)[C@](C)(O)[C@@H](CC)OC(=O)[C@@H]2C)C[C@@]1(C)OC
A: 2.54

Q: Now this one: CCCCCCCC(=O)NCCCN1C[C@H](C)C[C@@](C)(O)[C@H](O[C@@H]2O[C@H](C)C[C@H](N(C)C)[C@H]2O)[C@@H](C)[C@H](O[C@H]2C[C@@](C)(OC)[C@@H](O)[C@H](C)O2)[C@@H](C)C(=O)O[C@H](CC)[C@@](C)(O)[C@H](O)[C@H]1C
A: 3.74

The measured values listed here are drawn from ChEMBL document CHEMBL4265872.
